Tested on: S91
assayProtocol: Growth inhibition of Cloudman S91 Melanoma cells at 10 uM drug concentration; values are per cent of control
conditions: Mus musculus
Known level, % of control at 10 µM of a selection of molecules
Answer format: numeric, % implied, no suffix.

CC(O)Cc1cnc(S)nc1O (configuration not stated); 106

Inquiry: Fill in: level, % of control at 10 µM of `O=Cc1ccc(C(=O)OCCCCc2cnc(S)nc2O)cc1` is ___
Reply text: 98

Inquiry: Look up level, % of control at 10 µM for this molecule: `O=c1cc[nH]c(=S)[nH]1`
Reply text: 97

Inquiry: What does the data say about its level, % of control at 10 µM? Entry: `OCCCCc1cnc(S)nc1O`
Reply text: 82

Inquiry: level, % of control at 10 µM lookup needed for `CCOC(=O)c1ccc(/C=C(\C)c2ccc3c(c2)CCCC3)cc1` , thanks.
Reply text: 97

====

System: S91
assayProtocol: Growth inhibition of Cloudman S91 Melanoma cells at 10 uM drug concentration; values are per cent of control
conditions: Mus musculus
reportedMetric: level, % of control at 10 µM (%)
Report as a plain number; the unit % is understood.

Look over these answered cases.
C/C=C/C=C/C(=O)OCCCCc1cnc(S)nc1O; 94
CCOC(=O)c1ccc(/C=C(\C)c2ccc3c(c2)C(C)(C)CCC3(C)C)cc1; 98

# evaluate next
Inquiry: # returns recorded level, % of control at 10 µM (system: S91) for `CC(=O)OCCCCc1cnc(S)nc1O`
Reply text: 94

====

level, % of control at 10 µM by entry:
Tested on: S91
assayProtocol: Growth inhibition of Cloudman S91 Melanoma cells at 10 uM drug concentration; values are per cent of control
conditions: Mus musculus
Numeric only. Scale: %

Worked cases, answers included:
O=C1CCCC/C1=C/CCCc1cnc(S)nc1O; 89
N#CSCCCCc1cnc(S)nc1O; 100
C/C(=C\c1ccc(C(=O)O)cc1)c1ccc2c(c1)C(C)(C)CCC2(C)C; 98
O=Cc1ccc(C(=O)OCCc2cnc(S)nc2O)cc1; 83
C/C(=C\c1ccc(C(=O)OCCCCc2cnc(S)nc2O)cc1)c1ccc2c(c1)C(C)(C)CCC2(C)C; 84

Inquiry: Requested field: level, % of control at 10 µM. Item: `Oc1nc(S)ncc1CCCCBr`
Reply text: 100

Inquiry: For the compound shown here, `C/C(=C\c1ccc(C(=O)OCCCCc2cnc(S)nc2O)cc1)c1ccc2c(c1)CCCC2` , give the reported level, % of control at 10 µM.
Reply text: 103
